Examples of compounds with documented IC50 follow.
Molecular target: Human autotaxin enzyme (Homo sapiens, UniProt Q13822)
Construct: purchased R&D System
Experiment: Evaluation of autotaxin inhibitor, Method C (Test Example 3): 18:0 Lyso PC, choline assay, Resorufin fluorescence
Type: biochemical
Details: Assay Method C (Test Example 3), human autotaxin, 18:0 Lyso PC substrate; read-out: Inhibitory Activity (autotaxin enzyme inhibitory activity, IC50 class)

Solved cases (5 shown):
* CCCCCn1c(N2CCC[C@H]2C(=O)N[C@@H](CC(C)(C)C)C(=O)O)cc(=O)n2cc(-c3ccc(Cl)cc3)nc12 | < 10 nM
* CCCCCn1c(C2=CCN(C(=O)OC(C)(C)C)CC2)cc(=O)n2cc(-c3ccc(Cl)cc3)nc12 | 100 to 1000 nM
* CCCCCn1c(N2C[C@H](O)C[C@H]2C(=O)NC(C)(C)CC(=O)O)cc(=O)n2cc(-c3ccc(Cl)cc3)nc12 | < 10 nM
* CCCCCn1c(N2CCC[C@H]2C(=O)N[C@@H]2CCNC2=O)cc(=O)n2cc(-c3ccc(Cl)cc3)nc12 | 10 to 100 nM
* CCCCCn1c(NCC(=O)NCC(=O)O)cc(=O)n2cc(-c3ccc(Cl)cc3)nc12 | 100 to 1000 nM

IC50 measured on CCCCCn1c(N2CCC[C@H]2C(=O)N[C@H](CC)C(=O)O)cc(=O)n2cc(-c3ccc(Cl)cc3)nc12 = < 10 nM

IC50 measured on CCn1c(N2CCC[C@H]2C(=O)N[C@@H](Cc2ccccc2)C(=O)O)cc(=O)n2cc(-c3ccc(Cl)cc3)nc12 = 100 to 1000 nM

Every entry's value here was drawn from patent US20160002247A1.
